Entries and their Ki
# TEST TARGET: muPA-K41A (murine)
# ASSAY PROTOCOL: enzyme inhibition (steady state, chromogenic substrate S-2444); about 2 nM enzyme (purified or conditioned medium of transfected cells) pre-incubated 15 min with varied peptide in HBS (10 mM HEPES pH 7.4, 140 mM NaCl) with 0.1% BSA at 37°C; substrate about KM; fit for competitive inhibition; highest peptide concentration 400 µM
Bridge positions count the residues as written; N and C are the ends. Ends that are not written are not given here.
OBSERVED PROPERTY: Ki

* CPAYSRYLAC (disulfide 1-10 (inferred)) [Mupain-1 D9A] | 270 nM
* CPAYSRYLDC (disulfide 1-10 (inferred)) [mupain-1] | 4290 nM
